- method: resazurin metabolic signal in HepG2 cells – cell-based, resazurin fluorescence, 24 h, PK04 Diversity Set, profiling panel (AID 1172); further: test concentration not given here
- condition-set: HepG2 viability, higher = more signal
Decide using z-score alone. Strictly below -0.7: satisfied. Equal to or above -0.7: not satisfied.

molecule	label-class
COc1ccc([Si](C)(C)[C@@H]2[C@@H](CC(=O)N3CCC[C@H]3CO)O[C@]3(C(=O)N(Cc4cccc(N5C(=O)COc6ccccc65)c4)c4ccccc43)[C@H]2C)cc1	satisfied
C=C(C(=O)CC[C@H](OC(=O)c1ccccc1-c1ccccc1C(=O)O)c1cccc(OCCO)c1)C(C)C	satisfied
[N-]=[N+]=Nc1ccccc1C[C@]1(C(=O)NCC(O)CO)COC(c2ccc(OCCCO)cc2)=N1 (some centres not stated)	not satisfied
O=c1cccc(-c2ccc([N+](=O)[O-])cc2)o1	not satisfied
[N-]=[N+]=Nc1ccccc1[C@H]1OC(c2ccc(OCCCO)cc2)=N[C@@]1(Cc1ccccc1)C(=O)NCCN1CCOCC1	not satisfied
C=CCNC(=O)[C@@H]1[C@H]2C(=O)O[C@H](c3ccccc3)[C@H](c3ccccc3)N2[C@H](c2ccc(OCCO)cc2)[C@@]12C(=O)N(C(=O)OCCOC)c1ccc(C#Cc3ccc(OC)cc3)cc12	not satisfied

* * *

Entries annotated with measured z-score
- target-or-test-system: NADPH oxidase 4 (Homo sapiens) (UniProt Q9NPH5)
- Sequence (Q9NPH5 whole entry, looked up): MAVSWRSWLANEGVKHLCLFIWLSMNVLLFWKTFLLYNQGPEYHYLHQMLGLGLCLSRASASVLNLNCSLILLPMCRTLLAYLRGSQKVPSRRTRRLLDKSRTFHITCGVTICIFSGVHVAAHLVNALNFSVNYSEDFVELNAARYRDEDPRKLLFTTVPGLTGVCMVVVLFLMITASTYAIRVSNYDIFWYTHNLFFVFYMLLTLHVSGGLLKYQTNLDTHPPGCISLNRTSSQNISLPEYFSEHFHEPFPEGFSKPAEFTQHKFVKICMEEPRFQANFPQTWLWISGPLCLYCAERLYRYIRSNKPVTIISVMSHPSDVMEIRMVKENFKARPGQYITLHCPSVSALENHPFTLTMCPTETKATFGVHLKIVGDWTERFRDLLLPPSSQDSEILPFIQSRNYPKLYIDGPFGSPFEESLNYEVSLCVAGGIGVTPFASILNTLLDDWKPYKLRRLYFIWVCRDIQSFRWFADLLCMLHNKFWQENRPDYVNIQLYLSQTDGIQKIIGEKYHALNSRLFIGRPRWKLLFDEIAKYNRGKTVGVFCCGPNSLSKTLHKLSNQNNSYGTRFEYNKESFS
- method: compounds shifting NOX4 Amplex Red fluorescence – cell-based, HEK293-NOX4, tetracycline-induced, NOX inhibitor project, primary screen (AID 1160)
- condition-set: HEK293-NOX4, Amplex Red H2O2 fluorescence, 45 min; higher = more signal, called active from +8 up or from −8 down
Calls of active or inactive are those of the source.

compound	z-score
Cc1ccc(S[C@]2(C(=O)NCC(F)(F)F)CC(=O)N(Cc3cc(C(F)(F)F)cc(C(F)(F)F)c3)[C@@H]2c2ccc(CO)cc2I)cc1	-2.46 (inactive)
COC(=O)[C@@]1(Cc2ccc(F)cc2)[C@H]2c3cc(C(=O)N4CCCC4)n(Cc4ccc(C)c(F)c4F)c3C[C@H]2CN1C(=O)c1ccccc1	-7.95 (inactive)
COc1ccc([Si](C)(C)[C@@H]2[C@@H](CCO)O[C@]3(C(=O)N(Cc4cccc(NC(=O)[C@H](C)O)c4)c4ccccc43)[C@H]2C)cc1	0.436 (inactive)
C=CCNC(=O)[C@@H]1[C@H]2C(=O)O[C@H](c3ccccc3)[C@H](c3ccccc3)N2[C@H](c2ccc(O)cc2)[C@@]12C(=O)N(C(=O)OCCOC)c1ccc(C#CC3=CCCCC3)cc12	0.339 (inactive)
[N-]=[N+]=Nc1ccccc1C[C@]1(C(=O)NCCN2CCOCC2)COC(c2ccc(OCCCO)cc2)=N1	1.12 (inactive)
[N-]=[N+]=NCc1ccccc1C[C@@]1(C(N)=O)N=C(c2ccc(OCCCO)cc2)O[C@@H]1c1ccccc1	0.64 (inactive)
CCCCCN1CC=CC23O[C@@H]4C=CCCOC(=O)C4[C@H]2C(=O)N(CCCCCCO)[C@@H]3C1=O (some centres undefined)	-0.0418 (inactive)
CC(C)(C)OC(=O)CC[C@@]1(C(=O)NCC(O)CO)N=C(c2ccc(OCCCO)cc2)O[C@@H]1c1ccccc1CN=[N+]=[N-] (some centres undefined)	0.87 (inactive)
CC(C)[Si]1(C(C)C)OCc2cc(-c3ccc(-c4ccc(Cl)c(Cl)c4)o3)nc(-c3ccccc3)c21	-1.35 (inactive)
O=C1[C@H]2C=C(I)[C@H](C[C@@H]2OCCOCCO)[C@@]12CO2	0.373 (inactive)
CCOC(=O)C[C@H]1[C@H](OC(=O)c2ccc(C(=O)c3ccccc3)cc2)[C@@H](NC(=O)C2CCCCC2)c2cc(OCCCO)ccc2N1C(=O)c1ccc2ccccc2n1	0.402 (inactive)
COC(=O)[C@@]1(Cc2ccccc2)[C@H]2c3cc(C(=O)N(C)C)n(Cc4ccc(C)o4)c3C[C@H]2CN1C(=O)c1ccccc1	-2.44 (inactive)
COC(=O)[C@@H]1N=C(c2ccc(OCCCO)cc2)O[C@@H]1c1ccccc1	1.02 (inactive)
CCOC(=O)C[C@H]1[C@H](OC(=O)c2ccc(C(=O)c3ccccc3)cc2)[C@@H](NC(=O)CC(C)C)c2cc(OCCCO)ccc2N1C(=O)c1ccccc1	0.861 (inactive)
